- System Under Test: recombinant full-length PfCSP (Plasmodium falciparum circumsporozoite protein, strain NF54) (Plasmodium falciparum NF54, UniProt P19597)
- Sequence (P19597 20-375): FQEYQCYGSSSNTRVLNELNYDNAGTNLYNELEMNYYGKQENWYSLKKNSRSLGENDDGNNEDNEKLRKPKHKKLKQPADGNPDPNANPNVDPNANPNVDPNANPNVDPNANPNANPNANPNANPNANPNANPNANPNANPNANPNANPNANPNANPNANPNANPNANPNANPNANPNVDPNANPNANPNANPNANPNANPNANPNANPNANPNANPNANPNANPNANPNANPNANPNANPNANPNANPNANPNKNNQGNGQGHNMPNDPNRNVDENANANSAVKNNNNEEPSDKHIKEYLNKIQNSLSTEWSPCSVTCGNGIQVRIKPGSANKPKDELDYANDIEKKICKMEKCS
Value Type: binding result

Binder	Reading
CL-510092 (antibody, V domains shown) VH: QVQLVESGGGVVQPGTSLRLSCAASGFTFSNFGMYWVRQAPGKGLEWVALIWYDGSNKFYEDSVKGRFTISRDNSKNTLYLQMNSLRAEDTAVYYCAKDGGYSGPGKYGFFRHWGQGSLVTVSS VL: DIQLTQSPSTLSASVGDRVTITCRASQSISNWLAWYQQKPGKAPKLLIYKASSLESGVPSRFSGNGSGTEFTLTISSLQPDDFATYYCHQYNFYWTFGQGTKVEIK	binds
CL-511776 (antibody, V domains shown) VH: QVQLVESGGGVVQPGRSLTLSCAASGFTFSNFGMHWVRQAPGKGLEWMAVIWYDGNNEFYADSVKGRFTISRDNSKNMLYLHMNSLRAEDTAIYYCAREGDYSASGSHWLFDPWGQGTQVTVSS VL: DIQMTQSPSTLSASVGDSITITCRASQSINIWLAWYQQKPGKAPNLLIYKASSLESGVPSRFSGSGSGTEFTLTINSLQPDDFATYYCQQYNNYVTFGGGTKVEIK	binds
CL-509940 (antibody, V domains shown) VH: QVQLVESGGGVVQPGRSLRLSCAASGFTFSTYGMHWVRQAPGKGLEWVAVIWYDGSIKFYADSVKGRFTISRDDSKNTLYLQMNSLRAEDTAVYYCARDGGYSDSGRFGWFDPWGQGNLVTVSS VL: EIVMTQSPVTLSVSPGERVTLSCRASQSVSSNLAWYQQKPGQAPRLLIYGASNRATGIPDRFSGSGSGTEFSLTVTSLQSEDFAVYYCQQYNQWRTFGQGTKVEIR	binds
